Source listed as patent US4619925A.

concentration at 0.5 h values by entry
method description: Mouse blood levels
measurement context: mouse, blood, im, 20 mg/kg
// units = ng/mL; emit number, no label

{"columns": ["compound", "unit symbol", "concentration at 0.5 h"],
 "data": [
  ["C/C=C\\C1=C(C(=O)O)N2C(=O)C(NC(=O)[C@H](N)c3ccc(O)cc3)[C@H]2SC1 (some centres unmarked)", "ng/mL", 12000]
]}

Now look at this one.
Req: So what's the measured concentration at 0.5 h for this one? C/C=C\C1=C(C(=O)O)N2C(=O)C(NC(=O)[C@H](N)c3cccc(O)c3)[C@H]2SC1 (some centres unmarked)
Resp: 17000

----------
method description: Mouse blood levels
measurement context: mouse, blood, po, 100 mg/kg
concentration at 5 h values by entry
// units = µg/mL; emit number, no label

{"columns": ["molecule", "concentration at 5 h, µg/mL"],
 "data": [
  ["C/C=C\\C1=C(C(=O)O)N2C(=O)C(NC(=O)[C@H](N)c3ccc(O)cc3)[C@H]2SC1 (some centres unmarked)", 2.7]
]}

Now look at this one.
Req: So what's the measured concentration at 5 h for this one? C/C=C\C1=C(C(=O)O)N2C(=O)C(NC(=O)[C@H](N)c3cccc(O)c3)[C@H]2SC1 (some centres unmarked)
Resp: 3.1

----------
method description: in vivo
measurement context: mouse, in vivo, im, 20 mg/kg, AUC
reported endpoint: AUC
# answer = value followed by unit

Req: So what's the measured AUC for this one? C/C=C\C1=C(C(=O)O)N2C(=O)C(NC(=O)[C@H](N)c3ccc(O)cc3)[C@H]2SC1 (stereo partly shown)
Resp: 13 µg·h/mL
